System: MCF10A normal breast cancer cell lines
Protocol text: Cell viability analysis, WST-8 assay, MCF10A
Assay setup: compound 1 µM, 72 hours
Each entry below lists one item and its recorded Cell viability (%) WST-8, MCF10A (1 µM) value.
Numbers only; they are read as %.

CC(C)S(=O)(=O)N1CC2CCC1CN2c1nc(Nc2cc(C3CC3)[nH]n2)c2ccccc2n1 (centres unmarked) [compound 24a]    15.7
O=S(=O)(c1cccs1)N1CC2CCC1CN2c1nc(Nc2cc(C3CC3)[nH]n2)c2ccccc2n1 (centres unmarked) [compound 24d]    4.9
O=S(=O)(C1CCCCC1)N1CC2CCC1CN2c1nc(Nc2cc(C3CC3)[nH]n2)c2ccccc2n1 (centres unmarked) [compound 24b]    26.5
COc1ccc(CNc2nc(Nc3cc(C4CC4)[nH]n3)c3ccccc3n2)cc1    96.0

GET /values?item= N#Cc1ccccc1S(=O)(=O)N1CC2CCC1CN2c1nc(Nc2cc(C3CC3)[nH]n2)c2ccccc2n1 (centres unmarked) [compound 24e] &system= MCF10A normal breast cancer cell lines returns Cell viability (%) WST-8, MCF10A (1 µM): 2.8
